- experiment summary: qHTS for Inhibitors of Cell Surface uPA Generation: FP59 Counterscreen for Cherry-picked Compounds
- test parameters: FP59 anthrax toxin cytotoxicity counterscreen, cells; series mostly up to 115 µM
Records with an inconclusive call do not appear. Active and inactive are the calls of the source. Calls follow the shape of the dose curve; as a rule, active = well fitted activation curve with a large enough effect; inconclusive = small, poorly fitted or top-dose-only effect; inactive = flat fitted curve, though single readings scatter.
Outcome codes: active, inactive

> print(dat)
                                    compound  category.label
 1  CC(C)(C)S(=O)(=O)N1C[C@H]2CC/C=C\C/C(c3ccccc3)=C\2[C@@H]1CCO        inactive
 2           CCOC(=O)c1c(NC(=S)NC)sc2c1CCCC2        inactive
 3   CCCc1nn2c(=O)cc(CSCC(=O)Nc3ccccc3)nc2s1        inactive
 4  C=CCn1c(C)cc(C(=O)COC(=O)/C=C/c2cccc(OC)c2)c1C        inactive
 5  Cc1ccc(OCc2cc(C(=O)N(C)Cc3cc(C4CC4)n[nH]3)no2)cc1C        inactive
 6                 O=C(N/N=C/c1cccs1)c1ccco1        inactive
 7  O=C(NCCN1CCOCC1)c1ccc2c(c1)N(Cc1ccc(Cl)cc1)CCS2        inactive
 8    N#Cc1ccccc1Sc1ccccc1C(=O)Nc1ccc(Br)cc1        inactive
 9             O=C(Nn1cnnc1)c1ccc(Cl)c(Cl)c1        inactive
10  CC(C(=O)Nc1nccs1)c1ccc([N+](=O)[O-])cc1 (stereo not given)        inactive
11  O=C(COc1cc2oc(=O)cc(-c3ccccc3)c2cc1Cl)NC(Cc1c[nH]c2ccc(O)cc12)C(=O)O (stereo not given)        inactive
12    O=C(c1cc(COc2ccc(F)cc2Cl)on1)N1CCCCCC1        inactive
13  CC(C)N1CCc2c(sc(NC(=O)CCc3ccccc3)c2C(N)=O)C1        inactive
14  CC(/C=C/C1(O)C(C)CC(O)CC1(C)C)OC1OC(CO)C(O)C(O)C1O (stereo not given)        inactive
15  Cc1cccc(CCNC(=O)Cc2ccc(NC3=NC4CS(=O)(=O)CC4S3)cc2)c1 (stereo not given)        inactive
16                    CCOc1ccc(C(=O)NCCO)cc1        inactive
17  CC(C)c1ccc(SCc2noc(C(=O)NCC3CCCO3)c2C(=O)O)cc1 (stereo not given)        inactive
18  Cc1ccnc(N2CCN(C(=O)CSc3nc4ccccc4nc3N3CCC(C)CC3)CC2)c1          active
19  CC(=O)Nc1ccc(NC(=O)CCCCCN2C(=O)c3ccccc3C2=O)cc1        inactive
20          COCCN(C(=O)c1ccccc1OC)c1nnc(C)s1        inactive
21     CCOC(=O)CC(=O)CSc1nc2c(C)c(C)ccc2cc1C        inactive
22  CC(=O)c1ccc(NC(=O)CN2CCN(c3ccccc3)CC2)cc1        inactive
23         CCCc1nc2c(=O)n(C)c(=O)[nH]c2n1CCC        inactive
24         CC1(C)CC(=O)C=C(c2ccc3ccccc3c2)C1        inactive
25  COc1ccc(N2CCN(C(=O)COc3ccc4c(C)c(C)c(=O)oc4c3C)CC2)cc1        inactive
26  COc1ccc(-c2cc3nc(-c4ccccc4)cc(N4CCCC(O)C4)n3n2)cc1 (stereo not given)        inactive
27  O=C(NNC(=O)C1CC(c2cccs2)=NO1)Nc1ccccc1 (stereo not given)        inactive
28  COc1cc(OC)cc(C(=O)NC(C(=O)Nc2ccc3c(c2)CCC3)C(C)C)c1 (stereo not given)        inactive
29  COc1ccc(OC)c(S(=O)(=O)N2CCN(Cc3ccccc3)CC2)c1        inactive
30  CN(CC(=O)NCCCn1ccnc1)S(=O)(=O)c1ccc(Cl)cc1        inactive
31  COc1ccc(Nc2nc(-c3ccccc3)c(C(=O)Nc3cccnc3)s2)cc1        inactive
32  O=C(NCC1CCCO1)c1ccc(NC(=O)c2ccc([N+](=O)[O-])cc2)cc1 (stereo not given)        inactive
33        COCc1c(C(=O)Nc2nc(C)cs2)oc2ccccc12        inactive
34   CC(C)Cn1cnc2c1c(=O)[nH]c(=O)n2Cc1ccccc1        inactive
35           COc1ccc(-c2sc3ccccc3c2C#CCO)cc1        inactive
36  CC(=O)n1cc(/C=N/NC(=O)c2ccc([N+](=O)[O-])cc2)c2ccccc21        inactive
37  COc1ccc(C2=C/C(=C\c3ccccc3OC(C)=O)C(=O)O2)cc1        inactive
38  O=C(NCc1ccccn1)C1CCN(C(=O)c2cc3sccc3n2Cc2ccc(F)cc2)CC1        inactive
39  COc1ccc(Cc2nnc(NC(=O)Nc3ccc(F)cc3)s2)cc1        inactive
40    O=C(CNC(=O)c1ccc(Br)o1)NNC(=O)c1ccccc1        inactive
41  CCC(NC(=O)Cc1c(C)c2c(cc(C)c3c(C)c(C)oc32)oc1=O)C(=O)O (stereo not given)        inactive
42                   CC(=O)Nc1nc2ccccc2[nH]1        inactive
43  Cc1[nH]c2ccc(C(=O)OC(C)C(=O)NC3CCCCC3C)cc2c1C (stereo not given)        inactive
44     COc1ccc(C(=O)CC(=O)C(=O)Nc2ccccc2)cc1        inactive
45  Cc1ccccc1C(=O)NCC(=O)Nc1ccc(C)c(S(=O)(=O)N2CCCCCC2)c1        inactive

---

- experiment summary: qHTS for Inhibitors of Cell Surface uPA Generation: FP59 Counterscreen for Cherry-picked Compounds
- test parameters: FP59 anthrax toxin cytotoxicity counterscreen, cells; series mostly up to 115 µM
Results filed as inconclusive are left out. The source made the active and inactive calls. Calls follow the shape of the dose curve; as a rule, active = well fitted activation curve with a large enough effect; inconclusive = small, poorly fitted or top-dose-only effect; inactive = flat fitted curve, though single readings scatter.
test readout: outcome

> print(dat)
                            smiles.notation  experimental.result
1           O=c1ccc(S(=O)(=O)N2CCCC2)c[nH]1             inactive
2  Cc1ccc(NC(=O)CCCn2c(=S)[nH]c3ccsc3c2=O)cc1C             inactive
3  CCS(=O)(=O)N1CCC(C(=O)NCc2ccc(OC)cc2OC)CC1             inactive
4        COc1ccc(C(=O)CC2(C(=O)O)CCCCC2)cc1             inactive
5  Cc1nc(C(=O)N2CCC(n3nccc3NC(=O)Nc3ccccc3Cl)CC2)cs1             inactive
6  COc1ccc(S(=O)(=O)c2c(O)c3ccc(C(=O)Nc4ccccc4)cc3[nH]c2=O)cc1             inactive

---

- experiment summary: qHTS for Inhibitors of Cell Surface uPA Generation: FP59 Counterscreen for Cherry-picked Compounds
- test parameters: FP59 anthrax toxin cytotoxicity counterscreen, cells; series mostly up to 115 µM
Records with an inconclusive call do not appear. Active and inactive are the calls of the source. Calls follow the shape of the dose curve; as a rule, active = well fitted activation curve with a large enough effect; inconclusive = small, poorly fitted or top-dose-only effect; inactive = flat fitted curve, though single readings scatter.
Outcome codes: active, inactive

> print(dat)
                                    compound  category.label
 1  O=C(NCCc1ccccc1)C1CCC(=O)N(Cc2cccc(C(F)(F)F)c2)C1 (stereo unspecified)        inactive
 2  CCOC(=O)Oc1c(OC)cc(C(=O)O[C@@H]2C[C@@H]3CN4CCc5c([nH]c6cc(OC)ccc56)[C@H]4C[C@@H]3[C@H](C(=O)OC)[C@H]2OC)cc1OC        inactive
 3  CCCCCN(C(=O)CCC(=O)OCCOc1cccc(Cl)c1)c1c(N)n(CCCC)c(=O)[nH]c1=O        inactive
 4     COC(=O)/C(C#N)=C\c1c(OC)[nH]c2ccccc12        inactive
 5              O=C(CN1CCCC1)Nc1cccc(Cl)c1Cl        inactive
 6  C=CC(=O)N1C/C(=C/c2ccccc2)C(=O)/C(=C\c2ccccc2)C1          active
 7  COc1ccc(/C=N/NC(=O)COc2ccc3ccccc3c2)c(C(=O)O)c1OC        inactive
 8   COc1ccccc1C(=O)Nc1cccc(C(=O)c2ccccc2)c1        inactive
 9       NC(=O)C1CCN(C(=O)c2cccc3ccccc23)CC1        inactive
10            COCCNS(=O)(=O)c1cc(OC)c(C)cc1C        inactive
11  COc1cc(NS(=O)(=O)c2ccc(NC(=S)NC(=O)COc3ccccc3OC)cc2)nc(OC)n1        inactive
12  CC(C)(C)n1ncc2c(=O)n(Cc3ccc(Cl)cc3)cnc21        inactive
13         O=C(CN1C(=O)CSCC1=O)NCc1ccc(F)cc1        inactive
14  COc1ccc(C(=O)NCCOC(C)C)cc1OC1CCN(C(C)=O)CC1        inactive
15       O=c1[nH]c(SCc2cccc(Cl)c2)nc2ccccc12        inactive
16  Cc1ccc(S(=O)(=O)Nc2nc(C)cc(N/N=C/c3ccc(O)cc3)n2)cc1        inactive
17              O=C(NNC(=O)c1cccnc1)c1ccncc1        inactive
18   COc1cccc(NC(=S)NCc2ccc3c(c2)cc(C)n3C)c1        inactive
19  NC(=O)c1ccc(NC(=O)CN2CCN(S(=O)(=O)c3ccc4ccccc4c3)CC2)cc1        inactive
20  OCC[C@@H]1C[C@H](O)[C@@H](O)[C@]2(OCCc3ccccc32)O1        inactive
21  COc1cccc(NC(=O)CSc2nc3ncc(Br)cc3[nH]2)c1        inactive
22  OC(COc1ccc(Br)cc1)CN1CCN(c2ccccc2)CC1 (stereo unspecified)        inactive
23  Cc1ccc(S(=O)(=O)N2CCOCC2)cc1NC(=O)CSc1nc(N)cc(N)n1        inactive
24  CCOc1ccc(N(CC(=O)Nc2ccc(CC)cc2)S(=O)(=O)c2c(C)[nH]c(=O)[nH]c2=O)cc1        inactive
25  COc1ccc2[nH]cc(S(=O)(=O)c3ccc(C(C)C)cc3)c(=O)c2c1        inactive
26  C=CCn1c(SCc2ccc(C(=O)NCCO)cc2)nc2ccccc2c1=O        inactive
27                   Brc1ccsc1/C=N/Nc1ccccc1        inactive
28  CCOC(=O)N1CCN(C(=O)c2ccc3c(c2)sc2nc(-c4ccc(OC)cc4)cn23)CC1        inactive
29  COC(=O)c1cc(CNC(=O)c2ccc(N3CCCC3)c([N+](=O)[O-])c2)ccc1OC        inactive
30  O=C1[C@H]2[C@@H](c3ccc(F)cc3)N3C(=O)N(c4ccccc4)C(=O)[C@@]3(Cc3ccc(Cl)cc3)[C@H]2C(=O)N1C1CCCCC1        inactive
31  COc1cc(NC(=O)COC(=O)c2cc(S(=O)(=O)N3CCCCC3)ccc2Cl)c(C)cc1[N+](=O)[O-]        inactive
32  Cc1cc2c(cc1S(=O)(=O)Nc1ccc(F)cc1)n(C)c(=O)c(=O)n2C        inactive
33  O=C(O)CNS(=O)(=O)c1ccc2c(c1)Cc1cc(S(=O)(=O)NCC(=O)O)ccc1-2        inactive
34  Cc1ccc(C)c(S(=O)(=O)Nc2ccccc2C(=O)Nc2cc(C)on2)c1        inactive
35  CCCN1CCN(C(=O)CCCn2c(C)c3cnn(-c4ccccc4)c(=O)c3c2C)CC1        inactive
36  CC(C)C(NC(=O)Cc1ccccc1)C(=O)N1CCN(c2cccc(Cl)c2)CC1 (stereo unspecified)        inactive
37  O=C(O)c1cc(N=Nc2c(O)[nH]c3ccc([N+](=O)[O-])cc23)ccc1Cl        inactive
38  CCOC(=O)C1CCN(S(=O)(=O)c2c[nH]c(=O)[nH]c2=O)CC1        inactive
39  Cc1cc(=O)n2nc(N3CCCC(C(=O)NCc4ccc(Cl)cc4)C3)sc2n1 (stereo unspecified)        inactive
40  Cc1ccccc1S(=O)Cc1ccc(C(=O)N2CCN(C(=O)c3ccco3)CC2)o1 (stereo unspecified)        inactive
41  CCc1ccc(N2CC(C(=O)Nc3ccc4c(c3)OCO4)CC2=O)cc1 (stereo unspecified)        inactive
